Target Desc: T1, htau40 (Homo sapiens, UniProt P10636)
T1 construct: Full length tau (hT40)
T1 sequence (P10636 1-441 isoform P10636-8): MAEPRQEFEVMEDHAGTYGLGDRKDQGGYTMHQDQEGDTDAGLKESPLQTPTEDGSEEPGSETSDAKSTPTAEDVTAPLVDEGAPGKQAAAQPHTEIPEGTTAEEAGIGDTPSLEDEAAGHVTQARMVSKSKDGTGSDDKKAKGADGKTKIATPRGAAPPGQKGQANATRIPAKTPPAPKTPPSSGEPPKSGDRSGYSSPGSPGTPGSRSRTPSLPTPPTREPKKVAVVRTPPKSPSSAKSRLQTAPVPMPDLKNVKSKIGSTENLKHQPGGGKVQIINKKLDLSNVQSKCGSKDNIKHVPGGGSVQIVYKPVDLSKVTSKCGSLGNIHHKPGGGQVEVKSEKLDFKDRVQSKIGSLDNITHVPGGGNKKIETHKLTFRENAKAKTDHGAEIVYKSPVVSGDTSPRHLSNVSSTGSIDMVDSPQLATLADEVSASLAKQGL
Protocol Details: Biacore X100 SPR kinetics of anti-tau mAbs on immobilised htau40
Format: binding
Test Parameters: second Table 25; newly converted mAbs, hT40
Readout Type: kd (s⁻¹)
# value in s⁻¹; strip the unit string

Kindly note the recorded kd for CE2: anti-tau core clone, Table 10; SEQ ID NO: 366 (protein, CE2/E1B8 amino acid sequence) scFv: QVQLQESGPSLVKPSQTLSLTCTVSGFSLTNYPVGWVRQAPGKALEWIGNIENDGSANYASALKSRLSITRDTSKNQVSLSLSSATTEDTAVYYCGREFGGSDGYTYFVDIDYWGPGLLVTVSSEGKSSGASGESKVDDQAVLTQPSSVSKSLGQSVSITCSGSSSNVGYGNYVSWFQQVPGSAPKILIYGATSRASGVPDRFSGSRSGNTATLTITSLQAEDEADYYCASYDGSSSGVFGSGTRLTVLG , which is 0.001367
